Where do the numbers come from? From PubChem BioAssay (NCI).

Tested on: MOLT-4 leukemia
Assay: NCI-60 one-dose screen, 48 h (100 = growth as untreated, 0 = no growth, -100 = all killed)
Conditions: 10 µM unless noted
About 83,000 compounds went through this panel and 20% of them were active in at least one assay; those are over-represented in the sample as a whole.
Entries and their measured growth follow.
// units = %; emit number, no label

Cc1cc(N2CCOCC2)nc(N2CCOCC2)n1 = 104

-- ask For the compound C=C1CC[C@@H]2[C@](C)(COC(C)=O)[C@H](OC(C)=O)CC[C@@]2(C)[C@@H]1CC(Nc1ccc(S(=O)(=O)Nc2cc(C)on2)cc1)C1=CCOC1=O (some centres undefined) , what growth is on record?
-- reply -7.86

-- ask Repeat with CC(=O)c1nc2ccccc2n1CCn1cc(CC(N)C(=O)O)c2ccccc21 (centres undefined)
-- reply 83.9

-- ask Repeat with `Cc1c(C)c(N2C(=O)C=CC2=O)c(C)c(C)c1N1C(=O)C=CC1=O`
-- reply 72.4

-- ask Repeat with `c1ccc2cc(C[n+]3ccn(CCCCCCCn4cc[n+](Cc5ccc6ccccc6c5)c4)c3)ccc2c1`
-- reply 56.1

-- ask Repeat with `CCOc1ccccc1C(=O)OCC(=O)Nc1cccc(S(=O)(=O)N(C)C)c1`
-- reply 105

-- ask Repeat with `COc1ccc2nc3cc(Cl)ccc3c(N3CCN(c4ccnc(Nc5ccc(F)cc5)n4)CC3)c2c1`
-- reply 20

-- ask Repeat with `COc1ccc(-c2cncn2-c2ccc(-c3nc4cc(OC)c(OC)c(OC)c4s3)cc2)cc1N`
-- reply 40

-- ask Repeat with `Cc1cccc(Cl)c1NC(=O)c1ccc2nc(NC(=O)NC3CC(C)(C)NC(C)(C)C3)sc2c1`
-- reply 70

----------
Tested on: NCI-H23 lung
Assay: NCI-60 one-dose screen, 48 h (100 = growth as untreated, 0 = no growth, -100 = all killed)
Conditions: 10 µM unless noted
Compounds without any hit were thinned out: in the full panel of roughly 83,000, 20% have a hit. The source made the active and inactive calls. The calls were made as follows: active = growth percent below 10; inactive = the rest.
Quantity Measured: growth

Clc1ccc(-n2cnc3c(Cl)ncnc32)cc1Cl = 87% (inactive)

-- ask For the compound `Cc1c(C(N)=O)sc2ncn(Cc3ccccc3)c(=O)c12` , what growth is on record?
-- reply 101% (inactive)

-- ask Repeat with `O=C(CSc1nnc(Nc2ccccc2)s1)NCCc1ccc(F)cc1`
-- reply 131% (inactive)

-- ask Repeat with `O=C1CC(=O)N(c2ccccc2)O1`
-- reply 108% (inactive)

-- ask Repeat with `COc1ccc2c(c1)[nH]c(=O)c1c3cc(OC)c(OC)cc3cn21`
-- reply 42.5% (inactive)

-- ask Repeat with `Cc1nc2c(O)cccc2cc1CO`
-- reply 94.9% (inactive)

-- ask Repeat with CC(O)c1nc2c(c(=O)n(C)c(=O)n2C)n1C (stereo unspecified)
-- reply 114% (inactive)

-- ask Repeat with `Cn1cc(-c2csc(-c3c[nH]c4ncccc34)n2)c2cc(Br)cnc21`
-- reply 31.6% (inactive)

-- ask Repeat with COc1cccc(C2C(C#N)=C(N)Oc3cc(OC)ccc32)c1 (stereo unspecified)
-- reply 16.2% (inactive)

-- ask Repeat with `COc1ccc(-c2nnc(COc3ccc(NC(=O)Nc4cc(C(F)(F)F)cc(C(F)(F)F)c4)cc3F)o2)cc1`
-- reply -11% (active)

-- ask Repeat with `Clc1ccccc1[C@@H]1C[C@@H]2Cc3cc(Br)c4ccccc4c3N1O2`
-- reply 50.8% (inactive)

-- ask Repeat with `C=C(C[C@](O)(C(=O)/C=C/c1ccc(Cl)cc1)C(=O)OC)c1ccccc1`
-- reply 64.4% (inactive)

-- ask Repeat with `C[C@]12CC[C@@H]3c4ccc(O)c([N+](=O)[O-])c4CC[C@H]3[C@@H]1CC[C@@H]2NS(=O)(=O)c1cccc(Br)c1`
-- reply 28% (inactive)

-- ask Repeat with `COC(=O)[C@]1(CCSC)N[C@H](c2cn(-c3ccccc3)nc2C)[C@@H]2C(=O)N(c3ccccc3)C(=O)[C@@H]21`
-- reply 94.9% (inactive)

-- ask Repeat with `O=C(Oc1ccc[nH]c1=O)c1cccc(Cl)c1`
-- reply 95.6% (inactive)

-- ask Repeat with `CCOC(=O)/C(=C/c1ccccc1)C(=O)c1ccccc1`
-- reply 82.4% (inactive)
